Test system: Ishikawa cells
Assay: Induction of AlkP expression in Ishikawa cells
Assay type: cell-based, human
Settings: Homo sapiens, Ishikawa, 72 h; concentration required to achieve 25% of the effect of 0.1 nM E2; read-out: Induction of Alkaline Phosphatase Expression (Ishikawa cells) EC25E2
measurement.type: EC (25% of 0.1 nM E2 effect) (µM)

compound="COc1cc(OC2OC(CO)C(O)C(O)C2O)cc2occ(-c3ccc(O)cc3)c(=O)c12 (stereo not shown)" measurement_type="EC (25% of 0.1 nM E2 effect)" qual== measured_result=3.48
compound=COc1cc(-c2coc3cc(O)cc(OC)c3c2=O)ccc1O measurement_type="EC (25% of 0.1 nM E2 effect)" qual== measured_result=1.6
compound=O=c1c(-c2ccc(O)cc2)coc2cc(O)cc(O)c12 measurement_type="EC (25% of 0.1 nM E2 effect)" qual== measured_result=0.03
compound=O=c1c(-c2ccc(O)cc2)coc2cc(O[C@@H]3O[C@H](CO)[C@@H](O)[C@H](O)[C@H]3O)cc(O)c12 measurement_type="EC (25% of 0.1 nM E2 effect)" qual== measured_result=0.05
compound="O=c1c(-c2ccc(O)c(O)c2)coc2c(C3OC(CO)C(O)C(O)C3O)c(O)cc(O)c12 (stereo not shown)" measurement_type="EC (25% of 0.1 nM E2 effect)" qual=> measured_result=30
compound="C[C@]12CC[C@@H]3c4ccc(O)cc4CC[C@H]3[C@@H]1CC[C@@H]2O [Estradiol, 17β-estradiol, reference compound]" measurement_type="EC (25% of 0.1 nM E2 effect)" qual== measured_result=9.83
compound=COc1ccc(-c2coc3c(OC)c(O)ccc3c2=O)cc1 measurement_type="EC (25% of 0.1 nM E2 effect)" qual=> measured_result=30
compound="COc1cc(-c2coc3c(C4OC(CO)C(O)C(O)C4O)c(O)cc(O)c3c2=O)ccc1O (stereo not shown)" measurement_type="EC (25% of 0.1 nM E2 effect)" qual== measured_result=1.01
compound="O=c1c(-c2ccc(OC3O[C@H](CO)[C@@H](O)[C@H](O)[C@H]3O)cc2)coc2cc(OC3O[C@H](CO)[C@@H](O)[C@H](O)[C@H]3O)cc(O)c12 (stereo partly shown)" measurement_type="EC (25% of 0.1 nM E2 effect)" qual== measured_result=0.09
compound=O=c1c(-c2ccc(O)cc2)coc2cc(O)ccc12 measurement_type="EC (25% of 0.1 nM E2 effect)" qual== measured_result=0.46
compound=COc1cc(O)cc2occ(-c3ccc(O)cc3)c(=O)c12 measurement_type="EC (25% of 0.1 nM E2 effect)" qual== measured_result=3.9
compound=COc1cc(O)cc2occ(-c3ccc(O)c(O)c3)c(=O)c12 measurement_type="EC (25% of 0.1 nM E2 effect)" qual== measured_result=7.08
compound=COc1ccc(-c2coc3cc(O)cc(O)c3c2=O)cc1 measurement_type="EC (25% of 0.1 nM E2 effect)" qual== measured_result=0.19

---

Target: ERα (Homo sapiens, UniProt P03372)
Sequence (P03372 whole entry): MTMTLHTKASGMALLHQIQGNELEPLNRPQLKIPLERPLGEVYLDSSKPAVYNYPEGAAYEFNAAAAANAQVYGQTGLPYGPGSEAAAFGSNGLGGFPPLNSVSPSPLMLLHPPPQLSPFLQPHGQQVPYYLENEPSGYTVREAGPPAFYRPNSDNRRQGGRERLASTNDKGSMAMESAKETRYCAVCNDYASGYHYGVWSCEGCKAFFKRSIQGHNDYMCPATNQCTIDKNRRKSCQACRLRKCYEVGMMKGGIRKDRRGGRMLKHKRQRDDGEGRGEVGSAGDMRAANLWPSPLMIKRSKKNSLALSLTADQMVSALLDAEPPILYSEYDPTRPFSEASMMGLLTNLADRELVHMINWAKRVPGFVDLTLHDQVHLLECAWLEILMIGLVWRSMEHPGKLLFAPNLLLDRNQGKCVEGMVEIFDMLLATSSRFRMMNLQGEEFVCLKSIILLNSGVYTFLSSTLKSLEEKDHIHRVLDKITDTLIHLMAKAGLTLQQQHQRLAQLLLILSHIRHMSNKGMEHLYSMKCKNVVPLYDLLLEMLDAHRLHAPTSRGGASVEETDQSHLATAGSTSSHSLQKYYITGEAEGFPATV
Experiment: ERE-dependent luciferase gene transcription in MCF-7:D5L cells
Assay type: cell-based
Set-up: MCF-7:D5L cells, a clone of MCF-7 cells stably transfected with an Estrogen Response Element (ERE)-endowed reporter plasmid; endogenous in cells; host or cells: MCF-7:D5L (MCF-7 clone carrying pERE-Gl-Luciferase)
Conditions: % of AUC of luciferase response of archetypal 3, 4, 5 or 8 up to 0.3, 10, 1.0 and 3.0 μM
measurement.type: Induction of ERE-dependent Luciferase Transcription (MCF-7:D5L cells) AUC (%)

compound=O=c1c(-c2ccc(O)cc2)coc2cc(O)ccc12 result_unit=% measured_result=100
compound=COc1ccc(-c2coc3c(OC)c(O)ccc3c2=O)cc1 result_unit=% measured_result=0.7
compound=COc1cc(-c2coc3cc(O)cc(OC)c3c2=O)ccc1O result_unit=% measured_result=289
compound="COc1cc(OC2OC(CO)C(O)C(O)C2O)cc2occ(-c3ccc(O)cc3)c(=O)c12 (centres unmarked)" result_unit=% measured_result=69
compound=COc1ccc(-c2coc3cc(O)cc(O)c3c2=O)cc1 result_unit=% measured_result=33
